Attribution: the nanobody polyreactivity screen of Harvey et al. (2022)

- assay_remarks: yeast display, Sf9 membrane polyspecificity reagent, FACS + sequencing; frameworks hold sequencing errors
measured_property: polyreactivity (PSR sort gate)

| chain_sequence | recorded_value |
| --- | --- |
| QVQLVESGGGLVQAGGSLRLSCAASGRIFFYYAMGWYRQAPGKERELVAAINRGGRTYYADSVKGRFTISRDNAKNTVYLQMNSLKPEDTAVYYCAADGQTAKSNFDYWGQGTQVTVSS | low polyreactivity |
| QVQLVESGGGLVQAGGSLRLSCAASGRTFKPYAMGWYRQAPGKERELVAAISTGGSTNYADSVKGRFTISRDNAKNTVYLQMKSLKPEDTAVYYCAALYSYFWLIIDYGYWGQGTQVTVSS | low polyreactivity |
| QVQLVESGGGLVQAGGSLRLSCAASGFTFSYYAMGWDRQAPGKERELVAVISNSDGSTYYADSVKGRFTISRDNAKNTVYLQMNSLNPEDTAVYYCAAVPLWDYKFFYYLLYDYWGQGTQVTVSS | low polyreactivity |
